Experiment: soluble on expression in E. coli; label from the status in PepcDB or PDB records

MONOMER_SEQUENCE	soluble on expression in E. coli
MAMNYLEAFPKELREYYKNLFGKEEANKIMKKLREPVEHYYIRVNTLKISREKLIGELKKEGLKPLRSPYLPEGLYFVREGPNFSDDFEPKLPVVVANKYAAESVYQGAMLYAPGVLKADKNIKEGDEVQIRDPKGLLVGIGIARMDYKEMTEATRGLAVEVTLPKFKLPSLSELKAFEKGYFYPQGLPSMVTARVLEPKEDDVIIDMAAAPGGKTTHIAQLLENKGEIIAIDKSKNRLRKMEENIKRLGVKNVKLVQMDARKLPDLGIKADKILLDAPCTALGVRPKLWEERTLKHIEATARYQRAFIWAAIKSLRRGGVLVYSTCTLSYEENEGNVKFMIRKGMKLEEQSIFIGSPGIGMNKVQRFYPHKHLTQGFFIAKLRKVKDI	soluble
PVSWVLQQAPTVKGLDIQGAHGSVWQGQASSVRWQRQNLGQVNWDFQWSSLFTGKAEFSVRFGRGSDMNIRGRGLVGYSLSDGLYAENLVASIPASKAVEQARLPVPIGVDGQLELNIRHATYAAPWCKTGEGTLVWSASGIQSPVGSLELGPVIADLKCQDSVLTASGEQTSTQVSSAFSAEMMPNQRYSTKAWFKPGADFPSSMGEQLKWLGQPNAQGQYEFDYKGRF	not soluble
MILGPDGKPIKKPETSEIARVLHTFSAFMKSLPNPDIILKKTGKTAEIFEEMKTDAHVWAELTKRKSGVLSKDWDILPASNDRRDLEIAAFVKETFERLNFDQDMRTKTCGKCSMPCSRAGTCTN	not soluble
MAHHHHHHMHVQARYQRITEAYAVLSDPEKRRAYDAKHGVNFQSRLARLQTVIGHHNTMATQRSTTSCKTACLASTSSPTTDEHDAQHLHAASHKDSAERTVGDDDDEDYDPNDVLAPPRGAPHQGRSSDFYSDDSRDAHGEGDYIARLFSLHLRVGAEAAPKTRNGVPVVQYQAITLTRAYSPPESPYARTWGLVFKKNELVDLDGENLEELARITGLAAVPFPSVVQQINYTMAGTDDRLAAPAISALRIRVHTGLSGEPCHGPNGVDQY	not soluble
NKNAFLIVRGNLTYAHSEYLKYEDNTYDKEWWKYKIGYSPNQKWGYIAEGLFIDDAEVANSPVQFGDYKAGDIKYRDMNGDGVINSLDQVPIGHPTSPEINYGFGSTFSYKGFDINFQFHGSAQSSFWIDYDKMSPFFKDSKMSQKTNNQLVKFIANSYWSESNRNRYATWPRLSTTSVANNKELSTWFMRDGSFLRLKLVELGYTVPQKIVSKWGMSNLRLYMSSTNLFVLSKFKDWDVELAGNGLNYPLQRVFNIGVNVSF	not soluble
MATRADEDGDTPLHIAVVQGNLPAVHRLVNLFQQGGRELDIYNNLRQTPLHLAVITTLPSVVRLLVTAGASPMALDRHGQTAAHLACEHRSPTCLRALLDSAAPGTLDLEARNYDGLTALHVAVNTECQETVQLLLERGADIDAVDIKSGRSPLIHAVENNSLSMVQLLLQHGANVNAQMYSGSSALHSASGRGLLPLVRTLVRSGADSSLKNCHNDTPLMVARSRRVIDILRGKATRPAS	soluble

====

Experiment: soluble on expression in E. coli; label from the status in PepcDB or PDB records

MONOMER_SEQUENCE	soluble on expression in E. coli
MAGDPMETLLIQQTEKSNKFWKIVVKEKDYVVFYGKIGTAGSVKAKEFETEEECMNEANKLVASKRKKGYIDPLPGEDYIKEKTITEEEFWELLHRAKTKGEDQEEQIEWLTSHLAKRTVHEIVAFDTHMHSLLKDSYTSRLWAAAYIIMGGCSDDTFDYFRGWLLYQGKETYEACIEDPERLIPVLENLSEYDVPEIEELSLYFGFTVYAEKTGDEDDTYFTLYHVLSNEEFDDVDFEFDWNEDDEEGLKKVFPRLWEMYGEEPIEWLEHHHHHH	soluble
MSVDPACPQSLPCFEASDCKESSPMPVICGPEENYPSLQMSSAEMPHTETVSPLPSSMDLLIQDSPDSSTSPKGKQPTSAENSVAKKEDKVPVKKQKTRTVFSSTQLCVLNDRFQRQKYLSLQQMQELSNILNLSYKQVKTWFQNQRMKSKRWQKNNWPKNSNGVTQKASAPTYPSLYSSYHQGCLVNPTGNLPMWSNQTWNNSTWSNQTQNIQSWSNHSWNTQTWCTQSWNNQAWNSPFYNCGEESLQSCMHFQPNSPASDLEAALEAAGEGLNVIQQTTRYFSTPQTMDLFLNYSMNMQPEDV	soluble
MQDEKNFMSGVKENLDVLFTKLEKFLRTETVIGQPIKVGETTLIPIVTVMFGCGTGGGVGDNKGIKGQGGGLGTGARISPDAVLVIKNDDVQMLPVKKGANLSKLIEMVPEIVSKIKIDKENKEKEEVKKEENLEHHHHHH	soluble

Value source: the DeepSol protein solubility set
